# testDetails: Phase 1a pharmacokinetics in healthy volunteers, single IV administration
# Type: in vivo, human
# measurementSetup: human, plasma, intravenous, 0.025 mg/kg; read-out: elimination half-life (converted)
outcomeMeasure: half-life (min)
Kindly answer with a numeric value in min, unit omitted.

## Task Need half-life, item CC1(C)C(=CC=C2CCCC(C=CC3=[N+](CCCCS(=O)(=O)[O-])c4ccc(S(=O)(=O)O)cc4C3(C)C)=C2Oc2ccc(CC(NC(=O)c3ccc(NCc4cnc5nc(N)[nH]c(=O)c5n4)cc3)C(=O)O)cc2)N(CCCCS(=O)(=O)O)c2ccc(S(=O)(=O)O)cc21 (stereo not shown)
## Result 26.4

###

# testDetails: Phase 1a pharmacokinetics in healthy volunteers, single IV administration
# Assay type: in vivo, human
# measurementSetup: human, plasma, intravenous, 0.2 mg/kg, in 220 ml 5% dextrose, 60-min infusion; read-out: AUC0-inf
outcomeMeasure: AUC(0-inf)
A bare number is not enough; add the unit after it.

## Task Need AUC(0-inf), item CC1(C)C(=CC=C2CCCC(C=CC3=[N+](CCCCS(=O)(=O)[O-])c4ccc(S(=O)(=O)O)cc4C3(C)C)=C2Oc2ccc(CC(NC(=O)c3ccc(NCc4cnc5nc(N)[nH]c(=O)c5n4)cc3)C(=O)O)cc2)N(CCCCS(=O)(=O)O)c2ccc(S(=O)(=O)O)cc21 (stereo not shown) [pafolacianine]
## Result 1340 ng·h/mL

###

# testDetails: Repeat once-weekly IV dose toxicokinetics in dogs
# Assay type: in vivo
# measurementSetup: male, dog, in vivo, iv, 0.9 mg/kg, dogs M, 0.9 mg/kg once-weekly IV, Day 13
outcomeMeasure: clearance (mL/min/kg)
Kindly answer with a numeric value in mL/min/kg, unit omitted.

## Task Need clearance, item CC1(C)C(=CC=C2CCCC(C=CC3=[N+](CCCCS(=O)(=O)[O-])c4ccc(S(=O)(=O)O)cc4C3(C)C)=C2Oc2ccc(CC(NC(=O)c3ccc(NCc4cnc5nc(N)[nH]c(=O)c5n4)cc3)C(=O)O)cc2)N(CCCCS(=O)(=O)O)c2ccc(S(=O)(=O)O)cc21 (stereo not shown)
## Result 2.09

###

# testDetails: Phase 1a pharmacokinetics in healthy volunteers, single IV administration
# Assay type: in vivo, human
# measurementSetup: human, plasma, intravenous, 0.025 mg/kg, in 20 ml 0.9% NaCl, 10- and 60-min infusion; read-out: T1/2 (converted)
outcomeMeasure: half-life (min)
Kindly answer with a numeric value in min, unit omitted.

## Task Need half-life, item CC1(C)C(=CC=C2CCCC(C=CC3=[N+](CCCCS(=O)(=O)[O-])c4ccc(S(=O)(=O)O)cc4C3(C)C)=C2Oc2ccc(CC(NC(=O)c3ccc(NCc4cnc5nc(N)[nH]c(=O)c5n4)cc3)C(=O)O)cc2)N(CCCCS(=O)(=O)O)c2ccc(S(=O)(=O)O)cc21 (stereo not shown) [pafolacianine]
## Result 25

###

# testDetails: Repeat once-weekly IV dose toxicokinetics in dogs
# Assay type: in vivo
# measurementSetup: male, dog, in vivo, iv, 13.9 mg/kg, dogs M, 13.9 mg/kg once-weekly IV, Day 0
# Procedure: Overall, drug concentrations increased with ascending dose, noting that the mean profiles at the two highest dose levels were overlapping. Systemic exposure (AUClast) to pafolacianine was approximately dose-proportional over the range of doses administered (0.9 to 13.9 mg/kg) and within the observed variability (Table 5). […] On both Day 0 and Day 13, CL was slow (relative to hepatic blood flow) and Vss was moderate. Mean T1/2 ranged from approximately 13 to 18 hours.
outcomeMeasure: AUC(0-inf)
A bare number is not enough; add the unit after it.

## Task Need AUC(0-inf), item CC1(C)C(=CC=C2CCCC(C=CC3=[N+](CCCCS(=O)(=O)[O-])c4ccc(S(=O)(=O)O)cc4C3(C)C)=C2Oc2ccc(CC(NC(=O)c3ccc(NCc4cnc5nc(N)[nH]c(=O)c5n4)cc3)C(=O)O)cc2)N(CCCCS(=O)(=O)O)c2ccc(S(=O)(=O)O)cc21 (stereo not shown)
## Result 110 µg·h/mL

Source listed as patent US11986540B2.
